// provenance: ChEMBL document CHEMBL4321855

Assay: Oral bioavailability in rat
Format: ADME, organism-based
Settings: in vivo
PROPERTY MEASURED: bioavailability
Numeric answer plus unit only.

Q: Give the reported value of bioavailability for this record: "Sc1nc(-c2ccccc2Cl)nn1Cc1cccc(Cl)c1"
A: 61%

---

Molecular target: UniProt P25025
Experiment: Antagonist activity at CXCR2 (unknown origin) stably expressed in HEK293 cells co-expressing Galpha16 assessed as reduction in IL-8-induced intracellular calcium change incubated for 10 mins by Fluo-4AM dye based fluorescence assay
Format: functional, cell-based
PROPERTY MEASURED: IC50 (nM)
One number for each entry, in nM.

Q: Read the entry O=C(c1cccc(Nc2c(NC3C[C@@H]4CC[C@H]3C4)c(=O)c2=O)c1O)N1CCCC1 (stereo partly specified) and write its reported IC50.
A: 48

---

Target: C-X-C chemokine receptor type 2 (Homo sapiens)
Sequence (P25025 whole entry): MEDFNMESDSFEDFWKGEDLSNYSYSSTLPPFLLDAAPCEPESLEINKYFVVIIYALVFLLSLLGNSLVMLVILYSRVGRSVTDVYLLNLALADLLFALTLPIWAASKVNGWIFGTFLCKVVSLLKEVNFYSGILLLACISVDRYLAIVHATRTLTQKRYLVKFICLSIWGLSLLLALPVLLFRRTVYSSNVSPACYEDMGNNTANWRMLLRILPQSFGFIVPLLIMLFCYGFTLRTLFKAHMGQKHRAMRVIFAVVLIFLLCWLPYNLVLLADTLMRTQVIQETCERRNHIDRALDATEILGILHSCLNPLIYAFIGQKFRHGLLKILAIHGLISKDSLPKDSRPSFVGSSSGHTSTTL
Assay: Antagonist activity at CXCR2 (unknown origin)
PROPERTY MEASURED: IC50 (nM)
One number for each entry, in nM.

>>> df
                    structure_smiles_string  readout_value
0  CCN(CC)Nc1c(Nc2cccc(C(=O)N(C)C)c2O)c(=O)c1=O           0.12

Consider the record given below.
Q: Name the recorded IC50 of "Cc1ccc([C@H](Nc2c(Nc3cccc(S(=O)(=O)N4CCN(C)CC4)c3O)c(=O)c2=O)[C@H]2CCCS2)o1" , assay system C-X-C chemokine receptor type 2 (Homo sapiens).
A: 17

---

Biological target: C-X-C chemokine receptor type 2 (Homo sapiens)
Sequence (P25025 whole entry): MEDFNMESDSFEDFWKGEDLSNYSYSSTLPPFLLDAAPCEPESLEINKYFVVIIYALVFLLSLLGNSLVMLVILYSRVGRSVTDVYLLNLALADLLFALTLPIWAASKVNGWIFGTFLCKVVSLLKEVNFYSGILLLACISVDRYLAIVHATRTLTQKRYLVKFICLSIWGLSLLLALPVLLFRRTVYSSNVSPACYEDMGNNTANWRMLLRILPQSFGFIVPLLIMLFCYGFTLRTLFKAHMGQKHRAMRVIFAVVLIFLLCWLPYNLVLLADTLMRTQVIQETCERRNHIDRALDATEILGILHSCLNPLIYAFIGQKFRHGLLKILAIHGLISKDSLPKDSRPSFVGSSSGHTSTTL
Experiment: Antagonist activity at CXCR2 in human neutrophils assessed as reduction in GROalpha stimulated intracellular calcium mobilisation by FLIPR assay
Format: functional, cell-based
PROPERTY MEASURED: IC50 (nM)
One number for each entry, in nM.

Q: Enter measured IC50, system C-X-C chemokine receptor type 2 (Homo sapiens), for the compound shown: "Sc1nc(-c2ccccc2Cl)nn1Cc1cccc(Cl)c1"
A: 48

---

Target: C-X-C chemokine receptor type 2 (Homo sapiens, UniProt P25025)
Test: Antagonist activity at CXCR2 in human U2OS cells assessed as effect on beta-arrestin2 recruitment by CCF4-AM staining based Tango assay
Format: cell-based
PROPERTY MEASURED: IC50 (µM)
One number for each entry, in µM.

Q: Let me know recorded IC50 for "CC1(C)CC(=O)C(C(=S)Nc2ccccc2)=C(NCc2ccccc2)C1" , thanks.
A: 6.3

---

Target: UniProt P25025
Sequence (P25025 whole entry): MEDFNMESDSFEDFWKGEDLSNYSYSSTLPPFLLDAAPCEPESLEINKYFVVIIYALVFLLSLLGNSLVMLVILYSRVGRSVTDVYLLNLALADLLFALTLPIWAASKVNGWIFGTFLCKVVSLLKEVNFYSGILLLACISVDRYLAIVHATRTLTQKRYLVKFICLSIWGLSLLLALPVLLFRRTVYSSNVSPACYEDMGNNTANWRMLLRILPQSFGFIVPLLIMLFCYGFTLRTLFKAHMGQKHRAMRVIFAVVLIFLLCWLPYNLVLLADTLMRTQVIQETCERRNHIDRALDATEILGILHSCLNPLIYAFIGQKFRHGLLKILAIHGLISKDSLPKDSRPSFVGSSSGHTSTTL
Test: Displacement of [125I]IL-8 from CXCR2 in human neutrophils incubated for 3 hrs by gamma counting method
PROPERTY MEASURED: pIC50
Give bare numbers, as −log10 of the molar value.

Q: Tell me its pIC50 on UniProt P25025: "CCN(CC)CCCCNc1nc2cc(Cl)c(Cl)cc2nc1-c1cc2ccccc2o1"
A: 7.52
